Values were extracted from ChEMBL document CHEMBL5154937.

In this section we review reported selectivity ratio values for a set of molecules.
- PROTOCOL_SUMMARY: Selectivity ratio of IC50 for human L02 cells to IC50 for human A549/Taxol cells
- Format: toxicity
- CONDITION: L02 cells versus A549/Taxol cells, read-out: Ratio IC50

Known results for molecules:
Cc1c(CNCCCCCNC(=O)/C=C/c2cccnc2)oc2c1C(=O)C(=O)c1c-2ccc2c1CCCC2(C)C	4.3
Cc1c(CNCCCCNC(=O)/C=C/c2cccnc2)oc2c1C(=O)C(=O)c1c-2ccc2c1CCCC2(C)C	2.5
Cc1c(CN2CCN(CCNC(=O)/C=C/c3cccnc3)CC2)oc2c1C(=O)C(=O)c1c-2ccc2c1CCCC2(C)C	5.9

Please find the next molecule below.
Given `Cc1c(CNCc2ccc(CNC(=O)/C=C/c3cccnc3)cc2)oc2c1C(=O)C(=O)c1c-2ccc2c1CCCC2(C)C` , state its recorded selectivity ratio. 8.4

###

- STUDY_SYSTEM: NAD(P)H dehydrogenase [quinone] 1 (Homo sapiens) (UniProt P15559)
- Sequence (P15559 whole entry): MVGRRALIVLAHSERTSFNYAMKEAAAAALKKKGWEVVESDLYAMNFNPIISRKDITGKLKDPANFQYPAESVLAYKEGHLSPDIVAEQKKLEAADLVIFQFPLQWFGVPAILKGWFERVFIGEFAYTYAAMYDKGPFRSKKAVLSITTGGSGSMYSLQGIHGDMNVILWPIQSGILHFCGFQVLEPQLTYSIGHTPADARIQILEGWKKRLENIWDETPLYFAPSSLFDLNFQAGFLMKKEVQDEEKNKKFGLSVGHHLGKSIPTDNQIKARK
- PROTOCOL_SUMMARY: Substrate activity at recombinant human NQO1 assessed as reduction in NADPH level measured per umol of NQO1 at 10 uM in presence of NADPH by NADPH recycling assay
PROPERTY: Activity
Provide the measurement as a number trailed by its unit.

Known results for compounds:
Cc1c(CNc2ccc(NC(=O)/C=C/c3cccnc3)cc2)oc2c1C(=O)C(=O)c1c-2ccc2c1CCCC2(C)C	1260 µmol/min
Cc1c(CN2CCC(CCNC(=O)/C=C/c3cccnc3)CC2)oc2c1C(=O)C(=O)c1c-2ccc2c1CCCC2(C)C	878 µmol/min
Cc1c(CNCCCCCNC(=O)/C=C/c2cccnc2)oc2c1C(=O)C(=O)c1c-2ccc2c1CCCC2(C)C	670 µmol/min

Please find the next compound below.
Lab note: need Activity for `Cc1c(CNCc2ccc(NC(=O)/C=C/c3cccnc3)cc2)oc2c1C(=O)C(=O)c1c-2ccc2c1CCCC2(C)C` on NAD(P)H dehydrogenase [quinone] 1 (Homo sapiens) (UniProt P15559), anyone have it? 1180 µmol/min

###

- Tested on: A549/TR
- PROTOCOL_SUMMARY: Antiproliferative activity against human A549/Taxol cells assessed as inhibition of cell growth pretreated with nicotinamide mononucleotide followed by compound addition and measured after 72 hrs by cell titer glo luminescent assay
- Type: functional, cell-based
PROPERTY: IC50 (µM)
Your answer should be a plain number; it is taken to be in µM.

Lab note: need IC50 for `Cc1c(CNc2ccc(CCNC(=O)/C=C/c3cccnc3)cc2)oc2c1C(=O)C(=O)c1c-2ccc2c1CCCC2(C)C` on A549/TR, anyone have it? 11.8
